Overview of reported Kinact/Kl across a group of compounds:
- test-system: Human Polθ polymerase domain (aa1820-2590) (Homo sapiens)
- Construct: Human Polθ polymerase domain (aa1820-2590) was expressed in E. coli; made in house; host or cells: E. coli
- Sequence (O75417 1820-2590): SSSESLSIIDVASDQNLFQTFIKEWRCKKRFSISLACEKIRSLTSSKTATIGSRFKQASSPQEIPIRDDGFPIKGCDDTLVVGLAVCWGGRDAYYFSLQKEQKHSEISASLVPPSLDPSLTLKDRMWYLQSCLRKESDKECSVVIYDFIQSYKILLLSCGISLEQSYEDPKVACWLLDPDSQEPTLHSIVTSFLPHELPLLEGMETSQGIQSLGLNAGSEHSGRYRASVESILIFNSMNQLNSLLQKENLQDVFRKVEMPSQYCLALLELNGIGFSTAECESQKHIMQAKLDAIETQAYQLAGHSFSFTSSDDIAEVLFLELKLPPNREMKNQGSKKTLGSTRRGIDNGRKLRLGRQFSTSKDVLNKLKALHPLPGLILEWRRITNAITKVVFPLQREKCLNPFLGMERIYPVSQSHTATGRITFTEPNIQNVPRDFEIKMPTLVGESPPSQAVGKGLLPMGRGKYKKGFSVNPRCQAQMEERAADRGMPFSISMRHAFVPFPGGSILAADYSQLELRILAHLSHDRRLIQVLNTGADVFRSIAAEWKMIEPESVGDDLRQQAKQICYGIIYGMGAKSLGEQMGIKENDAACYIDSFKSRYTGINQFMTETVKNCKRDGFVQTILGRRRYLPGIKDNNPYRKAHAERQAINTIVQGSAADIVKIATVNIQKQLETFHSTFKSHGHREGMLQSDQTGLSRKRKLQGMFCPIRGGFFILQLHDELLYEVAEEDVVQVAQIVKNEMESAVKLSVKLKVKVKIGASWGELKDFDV
- assay-protocol: Polθ Polymerase Domain Kinact/KI Assay (PicoGreen)
- Assay type: biochemical
- recorded-conditions: 0.8 nM Polθ, 100 nM DNA substrate, kobs vs [I] fit for 2-step covalent inhibitor
- Procedure: Polθ Polymerase Domain Kinact/KI Assay A PicoGreen assay was used to measure the Kinact and KI values of covalent compounds that inhibit the activity of Polθ in vitro. Human Polθ polymerase domain (aa1820-2590) was expressed in E. coli, purified, aliquoted and stored at −80° C. until required. Polθ substrate was generated from a 1.2:1 mix of DNA II Short to DNA II Long to give a final concentration of […] substrate in annealing buffer (20 mM Tris pH 7.5, 50 mM NaCl). […]
Structures can show the parent of a compound that is named as a salt.
measured-quantity: Kinact/Kl (M⁻¹ s⁻¹)

{"columns": ["compound", "assay-value"],
 "data": [
  ["C=CC(=O)N1Cc2ncc(CN3C[C@H]4CC(=O)N(c5cc(C(F)(F)F)cc(C)n5)[C@@H]4C(=O)N(C)c4cccc(Cl)c43)nc2C1", 730000],
  ["C=CC(=O)N1CCC[C@H]1c1nnc(CN2C[C@H]3CC(=O)N(c4cc(C(F)(F)F)cc(C)n4)[C@@H]3C(=O)N(C)c3cccc(C)c32)o1", 60000],
  ["Cc1cc(C(F)(F)F)cc(N2C(=O)C[C@@H]3CN(CCN4CCOC5(C4)CN(C(=O)/C=C/CN(C)C)C5)c4c(F)cccc4N(C)C(=O)[C@H]32)n1 [Example 27, Hydrochloride]", "1.05e+06"],
  ["C=CC(=O)N1CCC(N2CCC(CN3C[C@H]4CC(=O)N(c5cc(C(F)(F)F)cc(C)n5)[C@@H]4C(=O)N(C)c4cccc(C)c43)CC2)C1 (mixture of isomers) [Example 95a]", "2.63e+06"],
  ["C=CC(=O)N1Cc2ccc(CN3C[C@H]4CC(=O)N(c5cc(C(F)(F)F)cc(C)n5)[C@@H]4C(=O)N(C)c4cccc(C)c43)nc2[C@@H]1CC#N (racemic) [Example 318b]", "1.56e+06"],
  ["C=CC(=O)N1CCN2C(=O)CN(CCN3C[C@H]4CC(=O)N(c5cc(C(F)(F)F)cc(C)n5)[C@@H]4C(=O)N(C)c4cccc(F)c43)CC2C1 (mixture of isomers) [Example 116a]", "1.17e+06"],
  ["Cc1cc(C(F)(F)F)cc(N2C(=O)C[C@@H]3CN(C[C@H]4C[C@@H](NC(=O)/C=C/CN(C)C)C4)c4c(C)cccc4N(C)C(=O)[C@H]32)n1", "1.3e+06"],
  ["C=CC(=O)N1CC(C)(N2CCC(CN3C[C@H]4CC(=O)N(c5cc(C(F)(F)F)cc(C)n5)[C@@H]4C(=O)N(C)c4cccc(Cl)c43)CC2)C1", 980000],
  ["C=C(CN(C)C)C(=O)N1CC(C2CCC(CN3C[C@H]4CC(=O)N(c5cc(C(F)(F)F)cc(C)n5)[C@@H]4C(=O)N(C)c4cccc(Cl)c43)CC2)C1 (some centres unmarked)", "2.3e+06"],
  ["Cc1cc(C(F)(F)F)cc(N2C(=O)C[C@@H]3CN(Cc4ccc5c(c4)CCN(C(=O)/C=C/CN(C)C)C5)c4c(F)cccc4N(C)C(=O)[C@H]32)n1", "1.08e+06"],
  ["C=CC(=O)N1C[C@H]2CN(CCN3C[C@H]4CC(=O)N(c5cc(C(F)(F)F)cc(C)n5)[C@@H]4C(=O)N(C)c4cccc(F)c43)CCN2C(=O)[C@H]1C (single isomer, unassigned)", 500000]
]}
